test system: SF-268 CNS; assay: NCI tumour cell line growth inhibition, 48 h
property label: TGI

Solved entries (count: 5):
| compound | reported value |
| --- | --- |
| Nc1nccc(-c2c[nH]c3cc(Br)ccc23)n1 | > 100 µM |
| COC(=O)C(CCCN1C(=O)c2ccccc2C1=O)C(=O)OC | > 100 µM |
| Cc1oc2c(cc(O)c3cc(O)ccc32)c2cccc1-2 | > 100 µM |
| O=C(O)c1ccc2c(c1C(=O)O)C(=O)OC2(c1ccc(O)cc1)c1ccc(O)cc1 | > 100 µM |
| COC(=O)C1=C(C(=O)OC)SC(=C2SCSC3=C2SC(C(=O)OC)=C(C(=O)OC)C32SC3=C(CCCC3)S2)S1 | > 100 µM |

Record TGI for all entries; do not skip any.
1. COc1ccc(OC)c(N2CC(N)C2=O)c1 (stereo not given)
2. c1ccc(Sc2ncnc3ccccc23)cc1
3. CC(=O)OCCOCNC(=S)N/N=C(\C)c1cnccn1
4. CC(=O)/C=C/C1=C(C)CCCC1(C)CC(C)C (stereo not given)
5. COc1cc(S(=O)(=O)Nc2nc(-c3ccc(N4C(=O)C(CC(=O)O)SC4c4cccs4)cc3)cs2)ccc1Cl (stereo not given)

Ans:
> 100 µM
41.7 µM
> 100 µM
> 100 µM
50.9 µM
